# Test system: DeltatarO mutant
# EXPERIMENTAL_DETAILS: S. aureus survival, RN4220 and DeltatarO strains – OD600, teichoic acid synthesis inhibitors, primary screen (AID 463173)
# STATED_CONDITIONS: S. aureus RN4220 wild type/DeltatarO growth, OD600, 18 h, hits give low values, screened at 18.75 µg/mL (by protocol)
Out of some 52,000 compounds screened, about 4,300 (8.3%) were called active. The sample as a whole holds a higher share of actives than the screen did.

| COMPOUND | UOM | survival |
| --- | --- | --- |
| COc1ccccc1Nc1nc(C)nc(N)c1S(=O)(=O)c1ccccc1 | % | 84 |
| COc1cccc(Cn2c(=O)n(-c3ccc(Br)cc3F)c(=O)c3sc4ccccc4c32)c1 | % | 96 |
| COc1ccc(-c2cc(C(F)(F)F)n3nc(C(=O)NCC45CC6CC(CC(C6)C4)C5)cc3n2)cc1OC | % | 137 |
| O=C(c1ccc(F)cc1)C1CCN(S(=O)(=O)c2ccc(F)cc2)CC1 | % | 95 |
| COCc1[nH]nc2c1C(c1ccc(F)c(F)c1)C(C#N)=C(N)O2 (configuration not stated) | % | 74 |
| COc1ccc2cc(CNc3ccccc3)c(=O)n(CC(=O)Nc3ccc(C(C)=O)cc3)c2c1 | % | 68 |
| CSc1nc(=O)c2c(n1C)NC(=O)CC2c1ccccc1OC(C)C (configuration not stated) | % | 46 |
| Cc1cc(C)c(O)c(N)c1 | % | 39 |
| C=CCn1c(=O)/c(=C2/Sc3ccccc3N2CC)s/c1=C1/C(=O)NN=C1C | % | 89 |
| Cc1ccc(Cl)cc1-n1c(=O)c2sc3ccccc3c2n(CC(=O)NC2CCCCC2)c1=O | % | 77 |
| CCCSc1nc(=O)c2c(n1C)NC(=O)CC2c1cccc(F)c1F (configuration not stated) | % | 54 |
| CCc1ccccc1NC(=O)CC1Sc2ccc(C(F)(F)F)cc2NC1=O (configuration not stated) | % | 82 |

###

Listed molecules paired with reported survival
# System: DeltatarO mutant
# EXPERIMENTAL_DETAILS: S. aureus survival, RN4220 and DeltatarO strains – OD600, teichoic acid synthesis inhibitors, primary screen (AID 463173)
# STATED_CONDITIONS: S. aureus RN4220 wild type/DeltatarO growth, OD600, 18 h, hits give low values, screened at 18.75 µg/mL (by protocol)
Out of some 52,000 compounds screened, about 4,300 (8.3%) were called active. Many of the other results were omitted from the sample, so actives are more common in it than they were.
READOUT_TYPE: survival (%)

| MOLECULE | READOUT_TYPE | OBS_VALUE |
| --- | --- | --- |
| CC(=O)c1ccc(NC(=O)c2cc3c([nH]c2=O)CC(c2ccccc2)CC3=O)cc1 (stereo not drawn) | survival | 63 |
| CCCN(CCC)C(=O)Cn1c(=O)n(CCCCCC(=O)NCc2ccccc2Cl)c(=O)c2sccc21 | survival | 81 |
| CCOC(=O)c1c(NC(=O)c2noc3c2CC(C(C)(C)C)CC3)sc2c1CCCC2 (stereo not drawn) | survival | 66 |

###

survival values by entry
# System: DeltatarO mutant
# EXPERIMENTAL_DETAILS: S. aureus survival, RN4220 and DeltatarO strains – OD600, teichoic acid synthesis inhibitors, primary screen (AID 463173)
# STATED_CONDITIONS: S. aureus RN4220 wild type/DeltatarO growth, OD600, 18 h, hits give low values, screened at 18.75 µg/mL (by protocol)
Out of some 52,000 compounds screened, about 4,300 (8.3%) were called active. For the sample, actives were picked, then their nearest neighbours and some compounds at random.
READOUT_TYPE: survival (%)

| COMPOUND | EXPERIMENTAL_TARGET | READOUT_TYPE | UOM | OBS_VALUE |
| --- | --- | --- | --- | --- |
| COc1ccc(CC(=O)Nc2cc(-c3cn4cccnc4n3)ccc2OC)cc1 | DeltatarO mutant | survival | % | 91 |
| CCCCN(c1ccccc1)S(=O)(=O)c1cc2c3c(c1)C(C)C(=O)N3CCC2 (stereo not given) | DeltatarO mutant | survival | % | 69 |
| Fc1ccc(Nc2nc(SCc3cccc(Cl)c3)nc3ccccc23)cc1 | DeltatarO mutant | survival | % | 70 |
| CC(=O)c1cccc(NC(=O)c2nc(-c3ccccc3)n(-c3cccc(Cl)c3)n2)c1 | DeltatarO mutant | survival | % | 68 |
| COc1cc(Nc2nc(SCc3ccc(Cl)cc3)nc3ccccc23)cc(OC)c1 | DeltatarO mutant | survival | % | 91 |
| CC(C)Oc1ccc(C(=O)NCc2cccnc2)cc1 | DeltatarO mutant | survival | % | 70 |
| O=C(Cc1csc2ccccc12)NCc1ccc(F)cc1 | DeltatarO mutant | survival | % | 71 |
| CSc1ccc(CCNC(=O)Cn2ncc3c(=O)oc4ccc(C)cc4c32)cc1 | DeltatarO mutant | survival | % | 89 |
| O=C(c1ccco1)N1CCN(C(c2ccccc2)c2nnnn2Cc2ccccc2)CC1 (stereo not given) | DeltatarO mutant | survival | % | 88 |
| CCOC(=O)c1ccccc1NC(=O)Cn1c(=O)n(Cc2nc(-c3ccccc3)no2)c(=O)c2ccccc21 | DeltatarO mutant | survival | % | 72 |

src = PubChem BioAssay AID463173
